# System: RPMI-8226
# test_protocol: NCI tumour cell line growth inhibition, 48 h
Active and inactive are the calls of the source. Rule as the data show it: active = GI50 up to about 1.1 µM and inactive = higher.
The categories you may choose from are 1 (yes) for active, 0 (no) for inactive

Example entries and their recorded answers appear below.
molecule	tested_on	answer_label
CC(=O)C(=[N+]=[N-])C(=O)N(C)CCC#N	RPMI-8226	0 (no)
CC(SCc1ccccc1)C(=O)O (configuration not stated)	RPMI-8226	0 (no)
COC(=O)Cc1c([C@H]2[C@H](CC(=O)OC)c3ccccc3N2C(C)=O)[nH]c2ccccc12	RPMI-8226	0 (no)
CC(C)(C)N1CC2(CCCCC2)C1=O	RPMI-8226	0 (no)

Asked: Write down the call the test reported for this molecule. Item: N=C1C(O)C2(I)c3ccccc3N3C(=N)C(O)C4c5ccccc5N1C4C32 (configuration not stated)
Given back: 0 (no)

Asked: Write down the call the test reported for this molecule. Item: Cc1cc(C)c(/N=N/c2c(O)c(S(=O)(=O)O)cc3cc(S(=O)(=O)O)ccc23)cc1C
Given back: 0 (no)

Asked: Write down the call the test reported for this molecule. Item: COc1ccc(C2SCc3nc4ccccc4n32)cc1 (configuration not stated)
Given back: 0 (no)

Asked: Write down the call the test reported for this molecule. Item: COc1ccc(S(=O)(=O)NC(CCC(=O)NC(N)=O)C(=O)NC(N)=O)cc1 (configuration not stated)
Given back: 0 (no)
